target: H1N1 A/California/07/2009 hemagglutinin ectodomain, biotinylated HA0 (influenza A virus A/California/07/2009 …, biotin on the BirA site); test: SPR
Positions of bridges follow the written chain, without caps; N, C: chain ends. Non-standard residues stand in square brackets, D forms with d. No end group written: not given here.
Provide the reported koff of each item.
Numbers only, in s⁻¹.

A selection of reference data follows.
>>> readout_value("CLYRDPLGVAGGMGC (disulfide 1-15) [cyclic peptide CP8]")
0.1
>>> readout_value("PGVSLYEDPLGVAGGMGVY (also: cyclic peptide, ring closure not given here) [cyclic peptide CP4]")
0.04
>>> readout_value("[dP]PVSLYEDPLGVAGGMGVY (also: cyclic peptide, ring closure not given here) [cyclic peptide CP1]")
0.01

Please supply koff for each of the following items, keeping them in order.
1. P[dP]SLYEDPLGVAGGMGV (also: cyclic peptide, ring closure not given here) [cyclic peptide CP2]
2. PGLYEDPLGVAGGMG (also: cyclic peptide, ring closure not given here) [cyclic peptide CP6]
3. PPLYEDPLGVAGGMG (also: one Pro of the Pro-Pro template is D, which not given here, cyclic peptide, ring closure not given here) [cyclic peptide CP3]

Key:
1: 3.48; 2: 0.83; 3: 1.07

Measured values drawn from paper PMC12714728 for this set.
